System: Pyricularia oryzae
Experiment: Antifungal activity against Pyricularia oryzae after 48 hrs by agar diffusion method
Format: functional
Could you please report measured MIC for the items listed next?

Examples with their reported MIC follow.
Compound	MIC
COc1ccc(C(=O)NN2C(c3ccccc3)=C(c3ccccc3)OC23C(=O)Nc2ccccc23)cc1 (centres undefined)	12 µg/mL
Cc1cccc(OCC(=O)NN2C(c3ccccc3)=C(c3ccccc3)OC23C(=O)Nc2ccccc23)c1 (centres undefined)	20 µg/mL
O=C(NN1C(c2ccccc2)=C(c2ccccc2)OC12C(=O)Nc1ccccc12)c1ccc(Cl)cc1 (centres undefined)	14 µg/mL
Cc1ccccc1OCC(=O)NN1C(c2ccccc2)=C(c2ccccc2)OC12C(=O)Nc1ccccc12 (centres undefined)	17 µg/mL

Hi, could you look up MIC for each item in my list?
1. O=C(NN1C(c2ccccc2)=C(c2ccccc2)OC12C(=O)Nc1ccccc12)c1ccc([N+](=O)[O-])cc1 (centres undefined)
2. Cc1ccc(OCC(=O)NN2C(c3ccccc3)=C(c3ccccc3)OC23C(=O)Nc2ccccc23)cc1 (centres undefined)

Result string:
1: 16 µg/mL; 2: 8 µg/mL

Hi, could you look up MIC for each item in my list?
1. O=C(NN1C(c2ccccc2)=C(c2ccccc2)OC12C(=O)Nc1ccccc12)c1ccccc1O (centres undefined)
2. O=C(COc1ccccc1)NN1C(c2ccccc2)=C(c2ccccc2)OC12C(=O)Nc1ccccc12 (centres undefined)

Result string:
["16 µg/mL", "15 µg/mL"]

====

Test system: Klebsiella pneumoniae
Test: Antibacterial activity against Klebsiella pneumoniae after 24 hrs by spectrophotometry
Type: functional
The source made the active and inactive calls. The rule behind the calls is not given here.
Measured quantity: MIC

Compound	Measured quantity	Measured value
O=C(NN1C(c2ccccc2)=C(c2ccccc2)OC12C(=O)Nc1ccccc12)c1ccc(Cl)cc1 (stereo not given)	MIC	50 µg/mL
O=C(COc1ccccc1)NN1C(c2ccccc2)=C(c2ccccc2)OC12C(=O)Nc1ccccc12 (stereo not given)	MIC	inactive
O=C(NN1C(c2ccccc2)=C(c2ccccc2)OC12C(=O)Nc1ccccc12)c1ccccc1O (stereo not given)	MIC	inactive
O=C(O)c1cn(C2CC2)c2cc(N3CCNCC3)c(F)cc2c1=O	MIC	6.25 µg/mL

Hi, could you look up MIC for each item in my list?
1. Cc1cccc(OCC(=O)NN2C(c3ccccc3)=C(c3ccccc3)OC23C(=O)Nc2ccccc23)c1 (stereo not given)
2. O=C(NN1C(c2ccccc2)=C(c2ccccc2)OC12C(=O)Nc1ccccc12)c1ccc([N+](=O)[O-])cc1 (stereo not given)
3. Cc1ccccc1OCC(=O)NN1C(c2ccccc2)=C(c2ccccc2)OC12C(=O)Nc1ccccc12 (stereo not given)
4. O=C(COc1ccc(Cl)cc1Cl)NN1C(c2ccccc2)=C(c2ccccc2)OC12C(=O)Nc1ccccc12 (stereo not given)
5. COc1ccc(C(=O)NN2C(c3ccccc3)=C(c3ccccc3)OC23C(=O)Nc2ccccc23)cc1 (stereo not given)
6. Cc1ccc(OCC(=O)NN2C(c3ccccc3)=C(c3ccccc3)OC23C(=O)Nc2ccccc23)cc1 (stereo not given)

Result string:
inactive
inactive
inactive
25 µg/mL
inactive
inactive

====

Tested on: Bacillus subtilis
Experiment: Antibacterial activity against Bacillus subtilis after 24 hrs by spectrophotometry
Type: functional
Active and inactive are the calls of the source. No cut-off for these calls is given here.
Measured quantity: MBC

Examples with their reported MBC follow.
Compound	MBC
O=C(COc1ccccc1)NN1C(c2ccccc2)=C(c2ccccc2)OC12C(=O)Nc1ccccc12 (stereo not given)	100 µg/mL
O=C(NN1C(c2ccccc2)=C(c2ccccc2)OC12C(=O)Nc1ccccc12)c1ccc([N+](=O)[O-])cc1 (stereo not given)	50 µg/mL
O=C(NN1C(c2ccccc2)=C(c2ccccc2)OC12C(=O)Nc1ccccc12)c1ccc(Cl)cc1 (stereo not given)	100 µg/mL
Cc1cccc(OCC(=O)NN2C(c3ccccc3)=C(c3ccccc3)OC23C(=O)Nc2ccccc23)c1 (stereo not given)	inactive
COc1ccc(C(=O)NN2C(c3ccccc3)=C(c3ccccc3)OC23C(=O)Nc2ccccc23)cc1 (stereo not given)	200 µg/mL

Hi, could you look up MBC for each item in my list?
1. O=C(O)c1cn(C2CC2)c2cc(N3CCNCC3)c(F)cc2c1=O
2. Cc1ccc(OCC(=O)NN2C(c3ccccc3)=C(c3ccccc3)OC23C(=O)Nc2ccccc23)cc1 (stereo not given)

Result string:
["12.5 µg/mL", "inactive"]

====

Could you please report measured MIC for the items listed next?
System: Podosphaera fuliginea
Assay: Antifungal activity against Sphaerotheca fuliginea after 72 hrs by agar diffusion method
Assay type: functional

Compound	Measured value
O=C(NN1C(c2ccccc2)=C(c2ccccc2)OC12C(=O)Nc1ccccc12)c1ccc([N+](=O)[O-])cc1 (centres undefined)	12 µg/mL
O=C(COc1ccc(Cl)cc1Cl)NN1C(c2ccccc2)=C(c2ccccc2)OC12C(=O)Nc1ccccc12 (centres undefined)	14 µg/mL
Cc1ccc(OCC(=O)NN2C(c3ccccc3)=C(c3ccccc3)OC23C(=O)Nc2ccccc23)cc1 (centres undefined)	12 µg/mL
O=C(COc1ccccc1)NN1C(c2ccccc2)=C(c2ccccc2)OC12C(=O)Nc1ccccc12 (centres undefined)	16 µg/mL
O=C(NN1C(c2ccccc2)=C(c2ccccc2)OC12C(=O)Nc1ccccc12)c1ccccc1O (centres undefined)	12 µg/mL

Hi, could you look up MIC for each item in my list?
1. COc1ccc(C(=O)NN2C(c3ccccc3)=C(c3ccccc3)OC23C(=O)Nc2ccccc23)cc1 (centres undefined)
2. O=C(NN1C(c2ccccc2)=C(c2ccccc2)OC12C(=O)Nc1ccccc12)c1ccc(Cl)cc1 (centres undefined)
3. Cc1ccccc1OCC(=O)NN1C(c2ccccc2)=C(c2ccccc2)OC12C(=O)Nc1ccccc12 (centres undefined)

Result string:
1: 8 µg/mL; 2: 12 µg/mL; 3: 12 µg/mL

====

Tested on: Enterobacter
Assay: Antibacterial activity against Enterobacter after 24 hrs by spectrophotometry
Format: functional
Measured quantity: MBC
Write your answer as a measured quantity: the number, then the unit.

Compound	Assayed target	Measured value
O=C(COc1ccc(Cl)cc1Cl)NN1C(c2ccccc2)=C(c2ccccc2)OC12C(=O)Nc1ccccc12 (stereo not given)	Enterobacter	100 µg/mL

Hi, could you look up MBC for each item in my list?
1. Cc1cccc(OCC(=O)NN2C(c3ccccc3)=C(c3ccccc3)OC23C(=O)Nc2ccccc23)c1 (stereo not given)
2. Cc1ccc(OCC(=O)NN2C(c3ccccc3)=C(c3ccccc3)OC23C(=O)Nc2ccccc23)cc1 (stereo not given)
3. COc1ccc(C(=O)NN2C(c3ccccc3)=C(c3ccccc3)OC23C(=O)Nc2ccccc23)cc1 (stereo not given)
4. O=C(NN1C(c2ccccc2)=C(c2ccccc2)OC12C(=O)Nc1ccccc12)c1ccc(Cl)cc1 (stereo not given)
5. Cc1ccccc1OCC(=O)NN1C(c2ccccc2)=C(c2ccccc2)OC12C(=O)Nc1ccccc12 (stereo not given)
6. O=C(O)c1cn(C2CC2)c2cc(N3CCNCC3)c(F)cc2c1=O

Result string:
100 µg/mL
100 µg/mL
100 µg/mL
50 µg/mL
50 µg/mL
25 µg/mL

Hi, could you look up MBC for each item in my list?
1. O=C(COc1ccccc1)NN1C(c2ccccc2)=C(c2ccccc2)OC12C(=O)Nc1ccccc12 (stereo not given)
2. O=C(NN1C(c2ccccc2)=C(c2ccccc2)OC12C(=O)Nc1ccccc12)c1ccc([N+](=O)[O-])cc1 (stereo not given)
3. O=C(NN1C(c2ccccc2)=C(c2ccccc2)OC12C(=O)Nc1ccccc12)c1ccccc1O (stereo not given)

Result string:
1. 100 µg/mL
2. 50 µg/mL
3. 50 µg/mL

====

Could you please report measured MBC for the items listed next?
System: Bacillus subtilis
Experiment: Antibacterial activity against Bacillus subtilis after 24 hrs by spectrophotometry
Format: functional

Molecule	Measured value
O=C(COc1ccc(Cl)cc1Cl)NN1C(c2ccccc2)=C(c2ccccc2)OC12C(=O)Nc1ccccc12 (stereo not drawn)	50 µg/mL

Let us move to another entry and its MBC.
Query string: Kindly state the measured MBC obtained for O=C(NN1C(c2ccccc2)=C(c2ccccc2)OC12C(=O)Nc1ccccc12)c1ccccc1O (stereo not drawn) with Bacillus subtilis.
Result string: 100 µg/mL
